Measured GI50 values are reported for all entries that follow.
- Tested on: SK-OV-3 ovarian
- Experimental details: NCI tumour cell line growth inhibition, 48 h
Value type: GI50

• Cc1cc(I)cc(CN(C)CCCN2CCCCCCC2)c1O = 18.7 µM
• CCC[CH2][Sn]1([CH2]CCC)[O]N=C(c2ccccc2)C(c2ccccc2)[O]1 (stereo not drawn) = 3.84 µM
• O=C(Nc1nc2ccc(C(F)(F)F)cc2s1)c1cc(Cl)ccc1O = 0.497 µM
• O=C(CNc1ccc(Cl)cc1)Nc1ccc(-c2nc3ccccc3s2)cc1 = 12 µM
• O=C(OC(CNc1cc(=O)n(Cc2ccccc2)c(=O)n1Cc1ccccc1)CN1CCCC1)c1ccccc1 (stereo not drawn) = > 100 µM
• OC[C@H]1C[C@](O)(c2ccc(Cl)cc2)[C@@H](c2ccc(Cl)cc2)O1 = 39.4 µM
• CCN(CC)CCOc1ccc(-c2nc3cc(Cl)ccc3s2)cc1 = 1.77 µM
• Cn1cc(CO)c2c1C(=O)C=C(N1CC1)C2=O = 0.0413 µM
• C=COCCCOc1ccccc1 = > 100 µM
• O=C1NC(=O)C(c2cnc3ccccn23)=C1c1cn2c3c(cc(F)cc13)CN(C(=O)N1CCCCC1)CC2 = 15.5 µM
• C=C(CNCc1ccccc1)c1ccc(C(=O)Nc2ccccc2N)cc1 = 4.22 µM
• O=C(Cc1ccc(/C=C/C(=O)c2ncc[nH]2)cc1)Nc1cc(F)c(F)c(F)c1 = 7.01 µM
• CCCCCCCCCCCCCC1=NC(C)(C)CN1C(C)C = 1.79 µM
